- targetOrTestSystem: pT7_6His-AlfaTag-HOXD13 (human, UniProt P35453 263-343)
- Sequence (P35453 263-343): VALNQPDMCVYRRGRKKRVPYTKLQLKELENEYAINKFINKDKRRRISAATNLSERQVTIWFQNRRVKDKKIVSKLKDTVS
- assayInfo: PADIT-seq
- conditionNotes: dsDNA, one strand shown

>  <residueCodes>
CTCGAGGATATCAAGATCTGGCCTCGGCTTTTTAGAAGGAACCTCTAGCTAGCCGACTCACTATAGGGATAATCGCCCTGAGCAAAGACC

>  <binding signal / log2FC>
0.559

$$$$
>  <residueCodes>
CTCGAGGATATCAAGATCTGGCCTCGGCGTTTTACATGGAACCTCTAGCTAGCCGACTCACTATAGGGATAATCGCCCTGAGCAAAGACC

>  <binding signal / log2FC>
2.03

$$$$
>  <residueCodes>
CTCGAGGATATCAAGATCTGGCCTCGGCATTTTATCGGGAACCTCTAGCTAGCCGACTCACTATAGGGATAATCGCCCTGAGCAAAGACC

>  <binding signal / log2FC>
1.85

$$$$

---

- targetOrTestSystem: pT7_6His-AlfaTag-HOXD13 (human, UniProt P35453 263-343)
- assayInfo: PADIT-seq
- conditionNotes: dsDNA, one strand shown
So basically every entry gets a class from its binding signal, ranges being lower bin (below -0.3 log2FC), middle bin (-0.3 log2FC to below 0.8 log2FC), upper bin (0.8 log2FC or more)

>  <residueCodes>
CTCGAGGATATCAAGATCTGGCCTCGGCTTGCTAAAAGGAACCTCTAGCTAGCCGACTCACTATAGGGATAATCGCCCTGAGCAAAGACC

>  <category>
middle bin

$$$$
>  <residueCodes>
CTCGAGGATATCAAGATCTGGCCTCGGCCTTTTAGGAGGAACCTCTAGCTAGCCGACTCACTATAGGGATAATCGCCCTGAGCAAAGACC

>  <category>
upper bin

$$$$
>  <residueCodes>
CTCGAGGATATCAAGATCTGGCCTCGGCGACGTAAAAGGAACCTCTAGCTAGCCGACTCACTATAGGGATAATCGCCCTGAGCAAAGACC

>  <category>
middle bin

$$$$
>  <residueCodes>
CTCGAGGATATCAAGATCTGGCCTCGGCTTTTTACCTGGAACCTCTAGCTAGCCGACTCACTATAGGGATAATCGCCCTGAGCAAAGACC

>  <category>
middle bin

$$$$
>  <residueCodes>
CTCGAGGATATCAAGATCTGGCCTCGGCGTTTTAGCCGGAACCTCTAGCTAGCCGACTCACTATAGGGATAATCGCCCTGAGCAAAGACC

>  <category>
lower bin

$$$$
>  <residueCodes>
CTCGAGGATATCAAGATCTGGCCTCGGCTCCCTAAAAGGAACCTCTAGCTAGCCGACTCACTATAGGGATAATCGCCCTGAGCAAAGACC

>  <category>
middle bin

$$$$
>  <residueCodes>
CTCGAGGATATCAAGATCTGGCCTCGGCGATCCACGCGGAACCTCTAGCTAGCCGACTCACTATAGGGATAATCGCCCTGAGCAAAGACC

>  <category>
lower bin

$$$$
>  <residueCodes>
CTCGAGGATATCAAGATCTGGCCTCGGCCGCTGACGCGGAACCTCTAGCTAGCCGACTCACTATAGGGATAATCGCCCTGAGCAAAGACC

>  <category>
lower bin

$$$$
>  <residueCodes>
CTCGAGGATATCAAGATCTGGCCTCGGCCGCCCATAAGGAACCTCTAGCTAGCCGACTCACTATAGGGATAATCGCCCTGAGCAAAGACC

>  <category>
middle bin

$$$$
>  <residueCodes>
CTCGAGGATATCAAGATCTGGCCTCGGCATTTTAACGGGAACCTCTAGCTAGCCGACTCACTATAGGGATAATCGCCCTGAGCAAAGACC

>  <category>
upper bin

$$$$
>  <residueCodes>
CTCGAGGATATCAAGATCTGGCCTCGGCAACGTAAAAGGAACCTCTAGCTAGCCGACTCACTATAGGGATAATCGCCCTGAGCAAAGACC

>  <category>
middle bin

$$$$
>  <residueCodes>
CTCGAGGATATCAAGATCTGGCCTCGGCATTTTAAAAGGAACCTCTAGCTAGCCGACTCACTATAGGGATAATCGCCCTGAGCAAAGACC

>  <category>
upper bin

$$$$
>  <residueCodes>
CTCGAGGATATCAAGATCTGGCCTCGGCTAATTAAAAGGAACCTCTAGCTAGCCGACTCACTATAGGGATAATCGCCCTGAGCAAAGACC

>  <category>
upper bin

$$$$
>  <residueCodes>
CTCGAGGATATCAAGATCTGGCCTCGGCGCGCTAAAAGGAACCTCTAGCTAGCCGACTCACTATAGGGATAATCGCCCTGAGCAAAGACC

>  <category>
lower bin

$$$$
>  <residueCodes>
CTCGAGGATATCAAGATCTGGCCTCGGCCTTTTAGGGGGAACCTCTAGCTAGCCGACTCACTATAGGGATAATCGCCCTGAGCAAAGACC

>  <category>
upper bin

$$$$
